The reported measurements were obtained from patent US20230233569A1.

- system.tested: KRAS WT (Homo sapiens, UniProt P01116+P62937)
- Sequence (P01116 1-169 isoform P01116-2 limits assumed): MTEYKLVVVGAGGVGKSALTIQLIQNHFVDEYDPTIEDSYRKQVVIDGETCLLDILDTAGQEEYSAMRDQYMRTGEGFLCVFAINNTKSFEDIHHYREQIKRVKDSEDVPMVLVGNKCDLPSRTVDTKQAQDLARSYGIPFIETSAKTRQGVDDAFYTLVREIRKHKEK
- Sequence (P62937 whole entry): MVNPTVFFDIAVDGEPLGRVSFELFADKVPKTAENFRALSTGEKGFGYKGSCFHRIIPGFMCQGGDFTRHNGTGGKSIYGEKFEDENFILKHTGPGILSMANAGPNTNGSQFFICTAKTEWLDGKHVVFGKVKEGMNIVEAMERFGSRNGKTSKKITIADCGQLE
- procedure.text: Ras-Raf disruption / FRET / MOA assay (BRAF RBD)
- Type: biochemical
- study.conditions: Ras-Raf disruption, with Cyclophilin A; read-out: KRAS WT FRET data IC50
For each entry below, report its IC50 value.

For record CCn1c(-c2cccnc2[C@H](C)OC)c2c3cc(ccc31)-c1cc(O)cc(c1)C[C@H](NC(=O)[C@H](C(C)C)N(C)C(=O)N1CC[C@H](N(C)C(=O)[C@H]3CN3)C1)C(=O)N1CCC[C@H](N1)C(=O)OCC(C)(C)C2 (atropisomer, axis not shown) [Example 254] the listed IC50 is 100 to 1000 nM

For record CCn1c(-c2cccnc2[C@H](C)OC)c2c3cc(ccc31)-c1cc(O)cc(c1)C[C@H](NC(=O)[C@H](C(C)C)N1CCC3(CCN(C(=O)[C@@H]4CN4)C3)C1=O)C(=O)N1CCC[C@H](N1)C(=O)OCC(C)(C)C2 (stereo partly shown) [Example 113] the listed IC50 is 10 to 100 nM

For record CCn1c(-c2cccnc2[C@H](C)OC)c2c3cc(ccc31)-c1csc(n1)C[C@H](NC(=O)[C@H](C(C)C)N(C)C(=O)N(C)CC1CN(C(=O)[C@H]3CN3)C1)C(=O)N1CCC[C@H](N1)C(=O)OCC(C)(C)C2 (atropisomer, axis not shown) [Example 293] the listed IC50 is 100 to 1000 nM

For record CCn1c(-c2cnccc2COC)c2c3cc(ccc31)-c1cccc(c1)C[C@H](NC(=O)[C@H](C(C)C)N(C)C(=O)CC1(N=C=Nc3ccc(OC)cc3)CC1)C(=O)N1CCC[C@H](N1)C(=O)OCC(C)(C)C2 [65 A and B] the listed IC50 is > 10000 nM
